Test system: pathway directly downstream of cGAS in cGAMP-stimulated THP1-Dual cells
Assay: cGAMP stimulated counter cell assay (THP1(cGAMP) IC50): IFN induction in cGAMP-stimulated THP1-Dual cells
Type: cell-based, human
Conditions: Homo sapiens, THP1-Dual; Table 1; cGAMP-stimulated THP1 cells; read-out: THP(cGAMP) IC50
For each entry below, report its pIC50 value.
Numbers only, as −log10 of the molar value.

Solved entries (count: 5):
compound	pIC50
C[C@H]1CN2CC[C@]1(F)c1cc(Cl)cnc1O[C@H]1C[C@@H](C(=O)O)N(C1)c1nc(nc3c1oc1ccccc13)C(F)(F)CCCOCC2=O [Example 31]	5.14
C[C@H]1CN2CC[C@]1(F)c1cc(Cl)cnc1O[C@H]1C[C@@H](C(=O)O)N(C1)c1nc(nc3c1oc1ccccc13)C(F)(F)OCCCCC2=O [Example 15]	5.09
COc1ncccc1-c1cnc2c(c1)[C@@]1(F)CCN(C[C@@H]1C)C(=O)CCCOCCc1nc(c3oc4ccccc4c3n1)N1C[C@H](C[C@H]1C(=O)O)O2 [Example 20.01]	5.09
C[C@H]1CCCOCc2nc(c3oc4ccccc4c3n2)N2C[C@H](C[C@H]2C(=O)O)Oc2ncc(Cl)cc2[C@@]2(F)CCN(C[C@@H]2C)C1=O (single isomer, unassigned) [Example 09]	5.46
C[C@@H]1COCCCc2nc(c3oc4ccccc4c3n2)N2C[C@H](C[C@H]2C(=O)O)Oc2ncc(Br)cc2[C@@]2(F)CCN(C[C@@H]2C)C1=O [Example 26]	5.49

# evaluate next
Recorded pIC50 for CC#Cc1cnc2c(c1)[C@@]1(F)CCN(C[C@@H]1C)C(=O)COCCCCc1nc(c3oc4ccccc4c3n1)N1C[C@H](C[C@H]1C(=O)O)O2 [Example 29] , please?
5.66

* * *

Target: cellular cGAS activity in baculovirus-stimulated THP1-Dual cells (Homo sapiens (Human), UniProt Q8N884)
Sequence (Q8N884 whole entry): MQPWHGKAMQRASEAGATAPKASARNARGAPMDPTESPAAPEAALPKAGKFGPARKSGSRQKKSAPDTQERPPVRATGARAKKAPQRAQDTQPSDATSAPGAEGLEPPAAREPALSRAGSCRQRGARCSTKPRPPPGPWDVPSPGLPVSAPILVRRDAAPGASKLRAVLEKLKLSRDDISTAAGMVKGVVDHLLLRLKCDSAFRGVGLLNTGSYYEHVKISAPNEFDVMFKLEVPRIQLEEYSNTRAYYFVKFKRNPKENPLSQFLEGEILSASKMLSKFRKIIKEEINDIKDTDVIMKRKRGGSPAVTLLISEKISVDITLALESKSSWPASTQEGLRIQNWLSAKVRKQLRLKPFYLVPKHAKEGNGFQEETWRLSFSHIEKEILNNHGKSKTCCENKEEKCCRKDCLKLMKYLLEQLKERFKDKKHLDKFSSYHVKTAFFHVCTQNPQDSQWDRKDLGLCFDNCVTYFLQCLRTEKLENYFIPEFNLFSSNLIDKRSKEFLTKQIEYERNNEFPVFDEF
Assay: Human cGAS cell assay (THP1(vir) IC50): IFN induction in virus-stimulated THP1-Dual cells, IRF Lucia luciferase reporter
Type: cell-based
Details: Table 1; virus-stimulated THP1 cells; read-out: THP(vir) IC50
pIC50: −log10 of the molar value.
// Criterion not met strictly below 7 in pIC50; Criterion met otherwise

> print(dat)
                                   compound    class.label
1  C[C@H]1CN2CC[C@]1(F)c1cc(Br)cnc1O[C@H]1C[C@@H](C(=O)O)N(C1)c1nc(nc3c1oc1ccccc13)CCCCOCC2=O [Example 28]  Criterion met

API: above_or_equal(metric=pIC50, cutoff=7) for item O=C(O)[C@@H]1C[C@H]2CN1c1nc(nc3c1oc1ccccc13)C(F)(F)CCCCCC(=O)N1CCC(F)(CC1)c1cc(Cl)cnc1O2 [Example 07]
Criterion not met

Would you mind doing C[C@H]1CN2CC[C@]1(F)c1cc(Cl)cnc1O[C@H]1C[C@@H](C(=O)O)N(C1)c1nc(nc3c1oc1ccccc13)CCOCCCC2=O [Example 16] as well?
Criterion met

C[C@H]1CN2CC[C@]1(F)c1cc(Cl)cnc1O[C@H]1C[C@@H](C(=O)O)N(C1)c1nc(nc3c1oc1ccccc13)C(F)(F)CCCOCC2=O [Example 31] ?
Criterion met

Next compound: C[C@H]1CN2CC[C@]1(F)c1cc(Cl)cnc1O[C@H]1C[C@@H](C(=O)O)N(C1)c1nc(nc3c1oc1ccccc13)COC(=O)CCC2=O [Example 11]
Criterion met

Next up: C[C@H]1CN2CC[C@]1(F)c1cc(Cl)cnc1O[C@H]1C[C@@H](C(=O)O)N(C1)c1nc(nc3c1oc1cc(F)ccc13)C(F)(F)CCCOCC2=O [Example 32]
Criterion met

Further, for C[C@H]1CN2CC[C@]1(F)c1cc(Cl)cnc1O[C@H]1C[C@@H](C(=O)O)N(C1)c1nc(nc3c1oc1ccccc13)CCCOCC2=O [Example 37] ?
Criterion met

* * *

Please go through the items and note down their pIC50.
Biological target: cellular cGAS activity in dsDNA-stimulated human whole blood (Homo sapiens (Human), UniProt Q8N884)
Sequence (Q8N884 whole entry): as above
Experiment: Human whole blood assay (hWB IC50): IFNα2a production after dsDNA transfection
Assay type: cell-based
Conditions: Table 1; dsDNA-stimulated human whole blood
Give bare numbers, as −log10 of the molar value.

Hi team, please reply with pIC50 for each item in this list.
1. C[C@H]1CN2CC[C@]1(F)c1cc(Cl)cnc1O[C@H]1C[C@@H](C(=O)O)N(C1)c1nc(nc3c1oc1ccccc13)CCOCCOC2=O
2. C[C@H]1CN2CC[C@]1(F)c1cc(Cl)cnc1O[C@H]1C[C@@H](C(=O)O)N(C1)c1nc(nc3c1oc1ccccc13)COCCCCC2=O

7.39
7.36

* * *

Molecular target: cellular cGAS activity in baculovirus-stimulated THP1-Dual cells (Homo sapiens (Human), UniProt Q8N884)
Test: Human cGAS cell assay (THP1(vir) IC50): IFN induction in virus-stimulated THP1-Dual cells, IRF Lucia luciferase reporter;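 also: Eight-point dilution series starting at 10 µM, 1% DMSO, 18 h at 37 °C, luminescence read-out, virus-free wells as 0% and DMSO-treated virus-stimulated wells as 100%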
Assay type: cell-based
Conditions: virus-stimulated THP1 cells; read-out: THP1(vir) IC50
measurement_kind: IC50 (µM)
One number for each entry, in µM.

For the molecule Cc1nc(N2C[C@@H](Cc3nn[nH]n3)C[C@H]2C(=O)O)c2oc3ccccc3c2n1 [Example No. 25 of WO 2020/142729, reference compound] , what IC50 is on record?
17

* * *

Exercise: state measured pIC50 for each of the compounds provided.
Target: cellular cGAS activity in dsDNA-stimulated human whole blood (Homo sapiens (Human), UniProt Q8N884)
Test: Human whole blood assay (hWB IC50): IFNα2a production after dsDNA transfection;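 also: IFNα-2a in plasma measured by MSD electrochemiluminescence immunoassay after 22 h at 37 °C, 8-point dilution series from 10 µM top concentration, DMSO wells as controls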
Format: cell-based
Conditions: Table 2; compounds from WO 2020/142729
pIC50: −log10 of the molar value.

> print(dat)
                                smiles.data  result
1  Cc1nc(N2C[C@@H](Cc3nn[nH]n3)C[C@H]2C(=O)O)c2oc3ccccc3c2n1  < 5.00
2  CC(C)(C(=O)N[C@H]1C[C@@H](C(=O)O)N(c2nc(C(F)(F)F)nc3c2oc2ccccc23)C1)c1cn[nH]c1  < 5.00

Given the compound Cc1nc(N2C[C@@H](CC(=O)Nc3ccncc3)C[C@H]2C(=O)O)c2oc3ccccc3c2n1 , what is its reported pIC50?
< 5.00

* * *

Please go through the items and note down their pIC50.
Test system: pathway directly downstream of cGAS in cGAMP-stimulated THP1-Dual cells
Assay: cGAMP stimulated counter cell assay (THP1(cGAMP) IC50): IFN induction in cGAMP-stimulated THP1-Dual cells
Type: cell-based, human
Conditions: Homo sapiens, THP1-Dual; Table 1; cGAMP-stimulated THP1 cells; read-out: THP(cGAMP) IC50
Answers are plain numbers, as −log10 of the molar value.

See these solved cases before continuing.
compound	pIC50
C[C@H]1CN2CC[C@]1(F)c1cc(Cl)cnc1O[C@H]1C[C@@H](C(=O)O)N(C1)c1nc(nc3c1oc1cc(Cl)ccc13)C(F)(F)CCCOCC2=O [Example 33]	5.19
C#Cc1cnc2c(c1)[C@@]1(F)CCN(C[C@@H]1C)C(=O)CCCOCCc1nc(c3oc4ccccc4c3n1)N1C[C@H](C[C@H]1C(=O)O)O2 [Example 18]	5.37
C[C@H]1CN2CC[C@]1(F)c1cc(Cl)cnc1O[C@H]1C[C@@H](C(=O)O)N(C1)c1nc(nc3c1oc1ccccc13)COCCCOC2=O [Example 13]	4.80
C[C@H]1CN2CC[C@]1(F)c1cc(Cl)cnc1O[C@H]1C[C@@H](C(=O)O)N(C1)c1nc(nc3c1oc1ccccc13)CCCOCCC2=O [Example 23]	5.00
COc1cc(-c2cnc3c(c2)[C@@]2(F)CCN(C[C@@H]2C)C(=O)CCCOCCc2nc(c4oc5ccccc5c4n2)N2C[C@H](C[C@H]2C(=O)O)O3)c(F)cn1 [Example 20.03]	5.23

Dear colleague, could you please provide pIC50 for the compounds listed below?
1. C[C@H]1CN2CC[C@]1(F)c1cc(Cl)cnc1O[C@H]1C[C@@H](C(=O)O)N(C1)c1nc(nc3c1oc1ccccc13)CC(=O)NCCCC2=O [Example 01]
2. O=C(O)[C@@H]1C[C@H]2CN1c1nc(nc3c1oc1ccccc13)C(F)(F)CCCCCC(=O)N1CCC(F)(CC1)c1cc(Cl)cnc1O2 [Example 07]
3. C[C@H]1CN2CC[C@]1(F)c1cc(Cl)cnc1O[C@H]1C[C@@H](C(=O)O)N(C1)c1nc(nc3c1oc1ccccc13)C(F)(F)CCCCCC2=O [Example 05]
4. C[C@H]1CN2CC[C@]1(F)c1cc(Cl)cnc1O[C@H]1C[C@@H](C(=O)O)N(C1)c1nc(nc3c1oc1cc(F)ccc13)CCCCOCC2=O [Example 30]
5. C[C@H]1CN2CC[C@]1(F)c1cc(-c3cnn(C)c3)cnc1O[C@H]1C[C@@H](C(=O)O)N(C1)c1nc(nc3c1oc1ccccc13)CCOCCCC2=O [Example 20.02]
6. C[C@H]1CN2CC[C@]1(F)c1cc(Cl)cnc1O[C@H]1C[C@@H](C(=O)O)N(C1)c1nc(nc3c1oc1ccccc13)COCCCC(F)(F)C2=O [Example 10]
7. C[C@H]1CN2CC[C@]1(F)c1cc(Cl)cnc1O[C@H]1C[C@@H](C(=O)O)N(C1)c1nc(nc3c1oc1ccccc13)CCOCCCC2=O [Example 16]

1. 5.54
2. 4.92
3. 5.03
4. 5.33
5. 5.10
6. 4.92
7. 5.18

Each of the following entries comes with a recorded value; kindly state pIC50 for each.
1. C[C@H]1CN2CC[C@]1(F)c1cc(Br)cnc1O[C@H]1C[C@@H](C(=O)O)N(C1)c1nc(nc3c1oc1ccccc13)CCOCCCC2=O [Example 17]
2. C[C@H]1CN2CC[C@]1(F)c1cc(Cl)cnc1O[C@H]1C[C@@H](C(=O)O)N(C1)c1nc(nc3c1oc1ccccc13)CCOCCOC2=O [Example 34]
3. C[C@H]1CN2CC[C@]1(F)c1cc(Cl)cnc1O[C@H]1C[C@@H](C(=O)O)N(C1)c1nc(nc3c1oc1ccccc13)CCCCOCC2=O [Example 27]

1: 5.25; 2: 4.80; 3: 5.77

For every item below, please supply its pIC50.
1. C[C@H]1COCCCc2nc(c3oc4ccccc4c3n2)N2C[C@H](C[C@H]2C(=O)O)Oc2ncc(Br)cc2[C@@]2(F)CCN(C[C@@H]2C)C1=O [Example 25]
2. C[C@H]1CN2CC[C@]1(F)c1cc(Br)cnc1O[C@H]1C[C@@H](C(=O)O)N(C1)c1nc(nc3c1oc1ccccc13)CCCCOCC2=O [Example 28]

1. 5.77
2. 5.72
